Hello, the source for this data is BigSolDB 2.1, in case you need it.

Condition details: in n-propanol, 298.15 K

- Molecule smiles: "O=C1NS(=O)(=O)c2ccccc21"
  solubility (mole fraction): 0.00621

---

Condition details: in isobutanol, 293.15 K
Measured attribute: solubility (mole fraction)

- Molecule smiles: "O=C1NS(=O)(=O)c2ccccc21"
  Measured attribute: "solubility (mole fraction)"
  Endpoint value: 0.00355

---

Condition details: in n-propanol, 288.15 K

- Molecule smiles: "O=C1NS(=O)(=O)c2ccccc21"
  solubility (mole fraction): 0.00439
